molecular target: neutrophil elastase (Homo sapiens (Human)); test: Human Neutrophil Elastase Assay; conditions: substrate MeOSuc-Ala-Ala-Pro-Val-AMC
Sequence (P08246 30-247): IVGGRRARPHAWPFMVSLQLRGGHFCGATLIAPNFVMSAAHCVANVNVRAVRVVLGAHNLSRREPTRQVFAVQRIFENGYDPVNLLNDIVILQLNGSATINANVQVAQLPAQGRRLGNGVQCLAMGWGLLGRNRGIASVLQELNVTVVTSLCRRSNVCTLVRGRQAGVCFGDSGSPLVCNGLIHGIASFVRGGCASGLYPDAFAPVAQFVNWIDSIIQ
# key: entry, value: IC50

Some solved entries appear below for comparison.
compound	IC50
CCOC(=O)C1=C(C)N(c2cccc(C(F)(F)F)c2)C(=O)N(C)C1c1ccc(C#N)cc1-c1ccn(C)c(=O)c1 (centres unmarked)	< 1 nM
CCNC(=O)c1cc(C#N)ccc1C1C(C(C)=O)=C(C)N(c2cccc(C(F)(F)F)c2)C(=O)N1C (centres unmarked)	< 1 nM
CC(=O)C1=C(C)N(c2cccc(C(F)(F)F)c2)C(=O)N(C)C1c1ccc(C#N)cc1C(=O)N1CC[C@H](N)C1 (some centres unmarked)	< 1 nM
CCOC(=O)C1=C(C)N(c2cccc(C(F)(F)F)c2)C(=O)N(C)C1c1ccc(C#N)cc1C(=O)NCCCOC (centres unmarked)	1.2 nM
CCN1CCN(C(=O)c2cc(C#N)ccc2C2C(C(C)=O)=C(C)N(c3cccc(C(F)(F)F)c3)C(=O)N2C)CC1 (centres unmarked)	4.1 nM
CC(=O)C1=C(C)N(c2cccc(C(F)(F)F)c2)C(=O)N(C)C1c1ccc(C#N)cc1C1=CCN(C(=O)OC(C)(C)C)CC1 (centres unmarked)	4.8 nM

input: Dear colleague, I am looking for the recorded IC50 of the following compound: CCOC(=O)C1=C(C)N(c2cccc(C(F)(F)F)c2)C(=O)N(C)C1c1ccc(C#N)cc1C(=O)NC1CCN(C)CC1 (centres unmarked)
output: 1 nM

input: Could you do the same for CC(=O)C1=C(C)N(c2cccc(C(F)(F)F)c2)C(=O)N(C)C1c1ccc(C#N)cc1C(=O)N1CCN(C(C)C)CC1 (centres unmarked) , please?
output: 2.7 nM

input: Okay, and CC(=O)C1=C(C)N(c2cccc(C(F)(F)F)c2)C(=O)N(C)C1c1ccc(C#N)cc1C(=O)NCc1ccnnc1 (centres unmarked) ?
output: < 1 nM

====

target: neutrophil elastase (Homo sapiens (Human), UniProt P08246); assay: Human Neutrophil Elastase Assay; settings: substrate MeOSuc-Ala-Ala-Pro-Val-AMC
attributeMeasured: pIC50
Recall that pIC50 is obtained by taking minus log10 of the concentration measured in molar.

Below, each entry is followed by its recorded pIC50 result.
compound	assaySystem	pIC50
C#CCNC(=O)c1cc(C#N)ccc1C1C(C(=O)OCC)=C(C)N(c2cccc(C(F)(F)F)c2)C(=O)N1C (stereo not shown)	neutrophil elastase (Homo sapiens (Human), UniProt P08246)	8.52
CC(=O)C1=C(C)N(c2cccc(C(F)(F)F)c2)C(=O)N(C)C1c1ccc(C#N)cc1C(=O)NC12CC(C1)C2 (stereo not shown)	neutrophil elastase (Homo sapiens (Human), UniProt P08246)	9.00
CC(=O)C1=C(C)N(c2cccc(C(F)(F)F)c2)C(=O)N(C)C1c1ccc(C#N)cc1C(=O)NCc1ccccc1 (stereo not shown)	neutrophil elastase (Homo sapiens (Human), UniProt P08246)	9.00
CC(=O)C1=C(C)N(c2cccc(C(F)(F)F)c2)C(=O)N(C)C1c1ccc(C#N)cc1C(=O)NCC(C)(C)O (stereo not shown)	neutrophil elastase (Homo sapiens (Human), UniProt P08246)	8.85

We next turn to a different compound, shown below.
input: Give recorded pIC50 with neutrophil elastase (Homo sapiens (Human), UniProt P08246) for the following compound: CC(=O)C1=C(C)N(c2cccc(C(F)(F)F)c2)C(=O)N(C)C1c1ccc(C#N)cc1C1=CN(C(=O)OC(C)(C)C)CC1 (stereo not shown)
output: 8.28

====

target: neutrophil elastase (Homo sapiens (Human)); assay: Neutrophil elastase inhibitory activity in human plasma; conditions: zymosan-stimulated human plasma, substrate MeOSuc-Ala-Ala-Pro-Val-AMC
Sequence (P08246 30-267): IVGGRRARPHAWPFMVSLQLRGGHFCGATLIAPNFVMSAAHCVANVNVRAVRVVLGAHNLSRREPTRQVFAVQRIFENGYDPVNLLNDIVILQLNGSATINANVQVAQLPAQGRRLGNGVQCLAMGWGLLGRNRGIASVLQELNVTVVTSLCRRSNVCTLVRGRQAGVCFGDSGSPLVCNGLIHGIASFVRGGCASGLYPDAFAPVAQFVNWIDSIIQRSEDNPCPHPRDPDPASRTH
attributeMeasured: EC50 (nM)
# output: bare number, implied unit nM

Some compounds with recorded EC50:
compound	attributeMeasured	reportedResult
CC(=O)C1=C(C)N(c2cccc(C(F)(F)F)c2)C(=O)N(C)[C@@H]1c1ccc(C#N)cc1-c1ccn(C)c(=O)c1 [Example 17]	EC50	5
CNC(=O)c1cc(C#N)ccc1[C@@H]1C(C(C)=O)=C(C)N(c2cccc(C(F)(F)F)c2)C(=O)N1C [Example 13.1]	EC50	1
CC(=O)C1=C(C)N(c2cccc(C(F)(F)F)c2)C(=O)N(C)C1c1ccc(C#N)cc1C(=O)NCC(C)(C)O (stereo not drawn) [Example 1.22]	EC50	2
CC(=O)C1=C(C)N(c2cccc(C(F)(F)F)c2)C(=O)N(C)[C@@H]1c1ccc(C#N)cc1-c1ccc(=O)n(C)c1 [Example 16]	EC50	1

input: Tell me reported EC50 for CC(=O)C1=C(C)N(c2cccc(C(F)(F)F)c2)C(=O)N(C)C1c1ccc(C#N)cc1C(=O)N1CCn2ncnc2C1 (stereo not drawn) [Example 1.73] , tested with neutrophil elastase (Homo sapiens (Human)).
output: 2

input: Same question for CC(=O)C1=C(C)N(c2cccc(C(F)(F)F)c2)C(=O)N(C)C1c1ccc(C#N)cc1C(=O)NCC#N (stereo not drawn) [Example 1.6] please.
output: 1

input: Also CC(=O)C1=C(C)N(c2cccc(C(F)(F)F)c2)C(=O)N(C)C1c1ccc(C#N)cc1-c1nnc(C)o1 (stereo not drawn) [Example 8] ?
output: 6

input: Do the same for CC(=O)C1=C(C)N(c2cccc(C(F)(F)F)c2)C(=O)N(C)C1c1ccc(C#N)cc1C(=O)NC1CC1 (stereo not drawn) [Example 1.8] please
output: 1

input: Further, for CC(=O)C1=C(C)N(c2cccc(C(F)(F)F)c2)C(=O)N(C)C1c1ccc(C#N)cc1C(=O)NCCF (stereo not drawn) [Example 1.10] ?
output: 1

====

# Lookup of reported Papp B→A at 10 μM keyed by entry
assay: Drug transport across human Caco-2 cells; type: in vitro ADME; conditions: human, Caco-2; basal-to-apical, pH 7.2, 37° C.; read-out: PEBA
The response must be a number in ×10⁻⁶ cm/s with no trailing unit.

// known answers, use as guide
compound	unitOfMeasure	Papp B→A at 10 μM
CC(=O)C1=C(C)N(c2cccc(C(F)(F)F)c2)C(=O)N(C)[C@@H]1c1ccc(C#N)cc1-c1ccc(=O)n(C)c1	×10⁻⁶ cm/s	120
CC(=O)C1=C(C)N(c2cccc(C(F)(F)F)c2)C(=O)N(C)C1c1ccc(C#N)cc1C(=O)N1CCn2ncnc2C1 (centres unmarked)	×10⁻⁶ cm/s	92
CC(=O)C1=C(C)N(c2cccc(C(F)(F)F)c2)C(=O)N(C)[C@@H]1c1ccc(C#N)cc1-c1ccn(C)c(=O)c1	×10⁻⁶ cm/s	114
CC(=O)C1=C(C)N(c2cccc(C(F)(F)F)c2)C(=O)N(C)C1c1ccc(C#N)cc1-c1nnc(C)o1 (centres unmarked)	×10⁻⁶ cm/s	63

Continue with the compound presented below.
input: Which Papp B→A at 10 μM value is on record for CC(=O)C1=C(C)N(c2cccc(C(F)(F)F)c2)C(=O)N(C)C1c1ccc(C#N)cc1C(=O)NCC(C)(C)O (centres unmarked) ?
output: 81

====

molecular target: hERG potassium channel (Homo sapiens (Human), UniProt Q12809); assay: hERG inhibition patch clamp assay; assay type: cell-based; conditions: human, @ 10 μM
Sequence (Q12809 whole entry): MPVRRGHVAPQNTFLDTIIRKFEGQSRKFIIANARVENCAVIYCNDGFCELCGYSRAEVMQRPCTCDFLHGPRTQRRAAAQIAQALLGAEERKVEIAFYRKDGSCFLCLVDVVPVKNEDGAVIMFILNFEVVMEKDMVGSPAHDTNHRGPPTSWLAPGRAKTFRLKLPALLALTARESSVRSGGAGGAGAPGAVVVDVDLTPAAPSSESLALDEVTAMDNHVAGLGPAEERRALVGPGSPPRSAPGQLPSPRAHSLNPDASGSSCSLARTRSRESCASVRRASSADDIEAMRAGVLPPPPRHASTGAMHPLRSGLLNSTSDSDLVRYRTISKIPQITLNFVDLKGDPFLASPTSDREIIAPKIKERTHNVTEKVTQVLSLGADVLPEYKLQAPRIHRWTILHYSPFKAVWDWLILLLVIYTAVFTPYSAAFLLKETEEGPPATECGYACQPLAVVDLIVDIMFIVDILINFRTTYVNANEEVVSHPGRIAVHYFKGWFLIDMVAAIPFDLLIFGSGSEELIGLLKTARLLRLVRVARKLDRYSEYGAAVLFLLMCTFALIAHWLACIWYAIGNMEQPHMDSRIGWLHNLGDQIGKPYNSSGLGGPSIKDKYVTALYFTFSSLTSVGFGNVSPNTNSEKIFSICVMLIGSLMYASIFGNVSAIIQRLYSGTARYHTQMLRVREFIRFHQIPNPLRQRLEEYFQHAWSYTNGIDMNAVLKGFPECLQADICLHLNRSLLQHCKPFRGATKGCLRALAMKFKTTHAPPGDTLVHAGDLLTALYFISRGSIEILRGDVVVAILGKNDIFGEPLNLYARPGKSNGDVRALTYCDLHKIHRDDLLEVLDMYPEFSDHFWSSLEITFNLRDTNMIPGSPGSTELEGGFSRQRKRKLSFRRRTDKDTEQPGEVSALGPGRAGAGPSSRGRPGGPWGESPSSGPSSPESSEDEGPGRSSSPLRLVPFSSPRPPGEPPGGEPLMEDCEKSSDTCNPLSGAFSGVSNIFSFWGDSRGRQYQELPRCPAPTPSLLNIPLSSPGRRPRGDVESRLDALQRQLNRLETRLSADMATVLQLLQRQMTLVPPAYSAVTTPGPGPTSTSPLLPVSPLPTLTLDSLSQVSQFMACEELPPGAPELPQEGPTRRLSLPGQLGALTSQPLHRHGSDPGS
attributeMeasured: inhibition at 10 µM

input: Hello, I am looking for reported inhibition at 10 µM with hERG potassium channel (Homo sapiens (Human), UniProt Q12809) for CC(=O)C1=C(C)N(c2cccc(C(F)(F)F)c2)C(=O)N(C)[C@@H]1c1ccc(C#N)cc1-c1ccc(=O)n(C)c1 . Could you help?
output: 8%

====

Below, each entry is listed with its recorded PEAB.
test system: Caco-2 cells; experiment: Drug transport across human Caco-2 cells; assay type: in vitro ADME; conditions: apical-to-basal, pH 7.2, 37° C.
Write the answer as a number in ×10⁻⁶ cm/s, unit excluded.

# annotated cases, reported PEAB shown
molecule	PEAB, ×10⁻⁶ cm/s
CC(=O)C1=C(C)N(c2cccc(C(F)(F)F)c2)C(=O)N(C)C1c1ccc(C#N)cc1C(=O)NCCF (stereo not shown) [Example 1.10]	39
CNC(=O)c1cc(C#N)ccc1[C@@H]1C(C(C)=O)=C(C)N(c2cccc(C(F)(F)F)c2)C(=O)N1C [Example 13.1]	33
CC(=O)C1=C(C)N(c2cccc(C(F)(F)F)c2)C(=O)N(C)C1c1ccc(C#N)cc1C(=O)NCC#N (stereo not shown) [Example 1.6]	10

Attention now turns to another entry.
input: Please report the recorded PEAB for CC(=O)C1=C(C)N(c2cccc(C(F)(F)F)c2)C(=O)N(C)C1c1ccc(C#N)cc1C(=O)NC1CC1 (stereo not shown) [Example 1.8] .
output: 44

====

Target: neutrophil elastase (Homo sapiens (Human))
Assay: Human Neutrophil Elastase Assay
Conditions: substrate MeOSuc-Ala-Ala-Pro-Val-AMC
Experimental: Human Neutrophil Elastase Assay All other materials were of the highest grade commercially available. […] Assay conditions: Test compounds were prediluted in DMSO and subsequently in compound buffer (5% DMSO final). […] After inactivation of the enzyme, fluorescence intensities were measured at 380 nm excitation and 460 nm emission wavelengths. […]
attributeMeasured: IC50

Past entries and their recorded results:
compound	IC50
CC(=O)C1=C(C)N(c2cccc(C(F)(F)F)c2)C(=O)N(C)C1c1ccc(C#N)cc1C(=O)NCC#N (stereo not shown) [Example 1.6]	< 1 nM
CC(=O)C1=C(C)N(c2cccc(C(F)(F)F)c2)C(=O)N(C)C1c1ccc(C#N)cc1C(=O)N1CCC1 (stereo not shown) [Example 1.7]	< 1 nM
CC(=O)C1=C(C)N(c2cccc(C(F)(F)F)c2)C(=O)N(C)C1c1ccc(C#N)cc1-c1nc(C)no1 (stereo not shown) [Example 9]	< 1 nM

input: What value of IC50 has been reported for the following compound? CC(=O)C1=C(C)N(c2cccc(C(F)(F)F)c2)C(=O)N(C)C1c1ccc(C#N)cc1C(=O)NCC(C)(C)N (stereo not shown) [Example 2.13]
output: < 1 nM

input: Field entry: CCOC(=O)C1=C(C)N(c2cccc(C(F)(F)F)c2)C(=O)N(C)C1c1ccc(C#N)cc1C(=O)N1CC[C@H](N)C1 (stereo partly shown) [Example 4.13]
output: < 1 nM
